Kd listing for selected compounds.
# SUBJECT OF TEST: UniProt P50225
# ASSAY PROCEDURE: Binding affinity to human SULT1A1 expressed in Escherichia coli assessed as change in intrinsic fluorescence
# Assay type: ADME
PARAMETER MEASURED: Kd (µM)

                              smiles_record  subject_of_test  unit_abbrev  numeric_readout
0  C#C[C@]1(O)CC[C@H]2[C@@H]3CCc4cc(O)ccc4[C@H]3CC[C@@]21C   UniProt P50225           µM              0.5
1  C[C@]12CC[C@@H]3c4ccc(O)cc4CC[C@H]3[C@@H]1CC[C@@H]2O   UniProt P50225           µM              2.3

----------
# SUBJECT OF TEST: Sulfotransferase 1A1 (Homo sapiens, UniProt P50225)
# Sequence (P50225 whole entry): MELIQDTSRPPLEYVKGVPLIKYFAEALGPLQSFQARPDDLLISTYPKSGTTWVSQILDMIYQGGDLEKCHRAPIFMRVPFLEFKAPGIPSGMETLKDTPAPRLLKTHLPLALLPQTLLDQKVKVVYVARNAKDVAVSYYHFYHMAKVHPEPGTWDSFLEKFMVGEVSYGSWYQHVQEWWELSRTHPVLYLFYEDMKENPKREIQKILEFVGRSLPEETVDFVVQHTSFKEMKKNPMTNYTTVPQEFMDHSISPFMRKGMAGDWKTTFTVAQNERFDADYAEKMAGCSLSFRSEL
# ASSAY PROCEDURE: Inhibition of human SULT1A1 expressed in Escherichia coli assessed as p-nitrophenol sulfation at 100 nM by Michaelis-Menten equation analysis
pKi: −log10 of the molar value.
PARAMETER MEASURED: pKi

>>> df
                              smiles_record  parameter_measured  numeric_readout
0  C#C[C@]1(O)CC[C@H]2[C@@H]3CCc4cc(O)ccc4[C@H]3CC[C@@]21C                 pKi             8.05

----------
# SUBJECT OF TEST: Sulfotransferase 1A1 (Homo sapiens)
# ASSAY PROCEDURE: Binding affinity to human SULT1A1 expressed in Escherichia coli assessed as change in intrinsic fluorescence in presence of 3',5'-phosphoadenosine
# Type: ADME
PARAMETER MEASURED: Kd (nM)

>>> print(df.to_string())
                                   molecule  numeric_readout
0  C#C[C@]1(O)CC[C@H]2[C@@H]3CCc4cc(O)ccc4[C@H]3CC[C@@]21C [ETHINYL ESTRADIOL]              4.3
1  C[C@]12CC[C@@H]3c4ccc(O)cc4CC[C@H]3[C@@H]1CC[C@@H]2O [ESTRADIOL]             1200
